system: Wild type; assay: S. aureus survival, RN4220 and DeltatarO strains – OD600, teichoic acid synthesis inhibitors, primary screen (AID 463173); details: S. aureus RN4220 wild type/DeltatarO growth, OD600, 18 h, screened at 18.75 µg/mL (by protocol)
Hit rate of the full screen: of about 52,000 compounds, about 1,700 (3.3%) were called active. Rule as the data show it: active = survival mostly below about 52% (no sharp cut-off); inactive = mostly above about 56%. Shown is part of a subset that was picked to be rich in actives.
Bench note: report the call from active, inactive

Here's what some known entries look like.
[
  {
    "compound string": "Cc1ccc(NC(=O)CSc2nc3n[nH]c(C)c3c(=N)n2-c2cccc(C)c2)cc1",
    "assigned class": "active"
  },
  {
    "compound string": "Cc1ccc(CNC(=O)CSc2nc3n[nH]c(C)c3c(=N)n2-c2cccc(C)c2)cc1",
    "assigned class": "inactive"
  },
  {
    "compound string": "Cc1cccc(-n2c(SCC(=O)Nc3ccccc3Cl)nc3n[nH]c(C)c3c2=N)c1",
    "assigned class": "inactive"
  },
  {
    "compound string": "Cc1c(Cl)cccc1-n1c(SCC(=O)NCc2ccccc2)nc2n[nH]c(C)c2c1=N",
    "assigned class": "inactive"
  }
]

**Q:** Record lookup: outcome of this test for Cc1ccc(Cl)cc1-n1c(SCC(=O)NCc2ccccc2)nc2n[nH]c(C)c2c1=N ?
**A:** inactive

**Q:** Test call for this compound, please: Oc1cccc2c1NCCC2
**A:** inactive

**Q:** Tell me the assay call for CCCCOc1nnc(-c2ccc(OCC)cc2)c2ccccc12 please.
**A:** active

**Q:** Hi team, can someone confirm the assay call for O=C(CCCCCn1c(=O)[nH]c2ccccc2c1=O)NCCc1ccccc1 ?
**A:** inactive

**Q:** Recorded call for CCOc1ccc(-c2ncccc2O)cc1 ?
**A:** inactive

**Q:** So what was the verdict on Cc1cccc(-n2c(SCC(=O)Nc3ccc(C)c(C)c3)nc3n[nH]c(C)c3c2=N)c1 in this test?
**A:** inactive

**Q:** Recorded test call requested for Cc1cccc(NC(=O)CSc2nc3n[nH]c(C)c3c(=N)n2-c2cccc(Cl)c2)c1
**A:** active

**Q:** Would you mind telling me which call this test gave Cc1nnc(NC(=O)CCCN2C(=O)/C(=C/c3cccs3)SC2=S)s1 ?
**A:** inactive

**Q:** Write down the call the test reported for this compound. Item: CCOc1ccc(-c2nnc(Nc3ccc(S(N)(=O)=O)cc3)c3ccccc23)cc1
**A:** inactive

**Q:** # fetch the recorded call for N#C/C(=C\c1cc(Br)c(O)c(Br)c1)c1nc2ccccc2c(=O)[nH]1 here
**A:** inactive

**Q:** Which result was noted for this compound in the test: Cc1ccc(C2=Nc3ccccc3N(CC(=O)Nc3ccccc3F)C(=O)C2)cc1C
**A:** inactive

**Q:** What outcome does the record of this test show for CCOc1ccc(NC(=O)CN2C(=O)c3ccccc3Sc3ccc(C(=O)OC)cc32)cc1 ?
**A:** inactive

**Q:** Field: outcome | Entry: CCCN(C(=O)c1c(C)oc2ncn(CC(C)C)c(=O)c12)c1ccccc1C
**A:** inactive

**Q:** Hey, what did the test say about CCCCN(CC)C(=O)CSc1nc2n[nH]c(C)c2c(=N)n1-c1cccc(Cl)c1 ?
**A:** active

**Q:** So what was the verdict on Cc1ccc(-n2c(SCC(=O)NCc3ccccc3)nc3n[nH]c(C)c3c2=N)cc1Cl in this test?
**A:** active

**Q:** Outcome logged for Cc1oc2ncn(C)c(=O)c2c1C(=O)N1CCN(c2cccc(C(F)(F)F)c2)CC1 in this assay:
**A:** inactive

**Q:** What outcome does the record of this test show for COc1ccc(N(Cc2cccs2)C(=O)c2ccc(OCC(C)C)cc2)cc1 ?
**A:** inactive
